FYI, the data here is from PubChem BioAssay (NCI).

Assay: NCI Yeast Anticancer Drug Screen. Data for the sgs1 mgt1 strain (AID 161);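 further: 0% = growth of cultures given vehicle only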
Details: S. cerevisiae sgs1 mgt1 strain, at 50.0 µM, active compounds read high
The panel holds about 79,000 compounds, 15% with a hit somewhere; the sample as a whole holds those more often.

Compound: COC1CC(OC(=O)c2ccccc2)C(OC(=O)c2ccccc2)C(C)O1 (configuration not stated)
growth inhibition (%): 7.75
//
Compound: COC(O)C12OC3CO[Si](C(C)C)(C(C)C)O[Si](C(C)C)(C(C)C)OC3C1Oc1nc(=O)ccn12 (configuration not stated)
growth inhibition (%): 86.5
//
Compound: Cc1nc2c(Cl)cccc2c2ccccc12
growth inhibition (%): 87.5
//
Compound: CN(/N=C/c1ccc([N+](=O)[O-])o1)C(N)=O
growth inhibition (%): 87.3
//
Compound: CC1=C(C(=O)Nc2ccc(Cl)c(Cl)c2)C(c2ccco2)C(C(=O)Nc2ccc(Cl)c(Cl)c2)=C(C)N1
growth inhibition (%): 89.3
//
Compound: CC(C)(C)C1CCC2c3c([nH]c4ccccc34)C3C(=O)N(c4ccc(C(=O)O)cc4)C(=O)C3C2C1 (configuration not stated)
growth inhibition (%): 98.5
//
Compound: CC(C)=NOCCOC(=O)C(c1ccccc1)c1ccccc1
growth inhibition (%): 92
//
Compound: CC(C)(C)[Si](C)(C)OCC1OC(n2cnc3c(NC(=O)c4ccccc4)ncnc32)CC1O (configuration not stated)
growth inhibition (%): 3.25
//
Compound: COc1ccc(N=Nc2ccc3oc(=O)c(C(=O)Nc4ccccc4C)cc3c2)cc1
growth inhibition (%): 97.5
//
Compound: CC(C)CCN1CCC2(CCCCC2)CC1
growth inhibition (%): 51.3
//
Compound: CC(C)(C)OC(=O)C(N(Cc1ccccc1)Cc1ccccc1)N(Cc1ccccc1)Cc1ccccc1
growth inhibition (%): 24.4
//
Compound: COc1ccc2c(ccc[n+]2CC(=O)c2ccc(-c3ccccc3)cc2)c1
growth inhibition (%): 2.75
//
Compound: Cc1cc(Br)ccc1NC(=O)/C=C/C(=O)O
growth inhibition (%): 17.4
//
Compound: O=C(N/C(=C/c1ccc(Cl)cc1Cl)c1nc2ccccc2s1)c1ccccc1
growth inhibition (%): 98.9
//
Compound: Cc1ccc(S(=O)(=O)NC(Cc2ccccc2)C(=O)CCl)cc1 (configuration not stated)
growth inhibition (%): 88.8
//
Compound: COc1ccc(CCBr)cc1
growth inhibition (%): 22.2
//
Compound: CC(=O)c1c(O)c2cccc3c2n(c1=O)CCC3
growth inhibition (%): 94.9
//
Compound: Cc1c2cc[n+](C)cc2c(C)c2c1[nH]c1ccc(Cl)cc12
growth inhibition (%): 93
//
Compound: Oc1ccc(-c2ccc3ccccc3c2)cc1
growth inhibition (%): 99.2
//
Compound: Oc1ccc(C(O)(c2ccccc2)c2ccccc2)c2ccccc12
growth inhibition (%): 98.5
//
Compound: CCC[CH2][Ge]([CH2]CCC)([CH2]CCC)[O]C(=O)CC(=O)c1ccccc1
growth inhibition (%): 32.2
//
Compound: Cn1c(=S)c2[nH]c(SCc3ccncc3)nc2n(C)c1=O
growth inhibition (%): 64

* * *

Assay: NCI Yeast Anticancer Drug Screen. Data for the sgs1 mgt1 strain (AID 161);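 further: 0% = growth of cultures given vehicle only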
Settings: S. cerevisiae sgs1 mgt1 strain, at 50.0 µM (retest, dose inferred, filed as 5.0)
Compounds without any hit were thinned out: in the full panel of roughly 79,000, 15% have a hit. Activity calls are given as the source filed them. Rule as the data show it: active = growth inhibition above about 70%; inactive = the rest.
Outcomes: active, inactive

Molecule: CCC/C(C)=N/NC(=S)SC
Label: active
--
Molecule: O=c1[nH]c2c([N+](=O)[O-])cc(Cl)cc2nc1/C=C(\O)c1ccccn1
Label: inactive
--
Molecule: Cc1nn(-c2ccc(S(=O)(=O)[O-])cc2)c([O-])c1N=[N+](C)c1ccc(-c2ccc(N=Nc3ccc4c(S(=O)(=O)[O-])cc(S(=O)(=O)[O-])c(N)c4c3[O-])c([O-])c2)cc1[O-].[Cu+2].[Cu+2].[Na+]
Label: inactive
--
Molecule: CCCCn1cnc2c(SCc3ccccc3[N+](=O)[O-])nc(N)nc21
Label: inactive
--
Molecule: O=C1c2c(Br)sc(Br)c2[C@@H](NC(=O)C(F)(F)F)C1Br (some centres undefined)
Label: active
--
Molecule: Cc1ccc(S(=O)(=O)OCC(/C=N/NC(N)=O)OCOC(C)/C=N/NC(N)=O)cc1 (centres undefined)
Label: inactive
--
Molecule: Cc1ccccc1Sc1ncnc2ccccc12
Label: active
--
Molecule: CC(C)CN(CC(C)C)CN1C(=O)/C(=C/c2ccc([N+](=O)[O-])cc2)SC1=S
Label: inactive
--
Molecule: Cc1ccccc1NC(=O)C(=O)C(C#N)c1c(Cl)cccc1Cl (centres undefined)
Label: inactive
